Reference source: ChEMBL document CHEMBL3045357

Attribute: Activity
system: Glycine max; experiment: Genotoxicity in Glycine max (soybean) exposed to compound through spray 4 times over 2 weeks assessed as relative adduct level A2 measured per 10^9 nucleotides using [32P]labeling based autoradiography relative to untreated control; type: organism-based; details: in vivo, other, 336 h
// no unit string in output, number only

query: Form field - read-out: Activity; system: Glycine max; submitted item: "N#Cc1c(Cl)c(Cl)c(Cl)c(C#N)c1Cl"
result: 172

query: Form field - read-out: Activity; system: Glycine max; submitted item: CCOP(=S)(OCC)Oc1cc(C)nc(C(C)C)n1 [DIMPYLATE]
result: 49

query: Form field - read-out: Activity; system: Glycine max; submitted item: "CC(C)[C@H](C(=O)O[C@H](C#N)c1cccc(Oc2ccccc2)c1)c1ccc(Cl)cc1"
result: 49

query: Form field - read-out: Activity; system: Glycine max; submitted item: "CNC(=O)Oc1cccc2ccccc12"
result: 11

====

system: Glycine max; assay: Genotoxicity in Glycine max (soybean) exposed to compound through spray 4 times over 2 weeks assessed as relative adduct level A3 measured per 10^9 nucleotides using HX-dG internal standard using [32P]labeling based autoradiography relative to untreated control; type: organism-based; details: in vivo, other, 336 h
Attribute: Activity
Expressed in cpm, but write only the number.

Reference set, count: 2
CCOP(=S)(OCC)Oc1cc(C)nc(C(C)C)n1 [DIMPYLATE]: 1377
CC(C)[C@H](C(=O)O[C@H](C#N)c1cccc(Oc2ccccc2)c1)c1ccc(Cl)cc1: 7857

query: Item CNC(=O)Oc1cccc2ccccc12 [CARBARIL] has what recorded Activity?
result: 809

query: Item N#Cc1c(Cl)c(Cl)c(Cl)c(C#N)c1Cl [CHLOROTHALONIL] has what recorded Activity?
result: 6932

====

system: Glycine max; assay: Genotoxicity in Glycine max (soybean) exposed to compound through spray 4 times over 2 weeks assessed as HNE-dG adducts measured per 10^9 nucleotides using [32P]labeling based autoradiography (reference value: 2 no unit); format: organism-based; conditions: in vivo, other, 336 h
readout.kind: Activity
// no unit string in output, number only

Reference set, count: 3
N#Cc1c(Cl)c(Cl)c(Cl)c(C#N)c1Cl: 160
CC(C)[C@H](C(=O)O[C@H](C#N)c1cccc(Oc2ccccc2)c1)c1ccc(Cl)cc1: 60
CCOP(=S)(OCC)Oc1cc(C)nc(C(C)C)n1 [DIMPYLATE]: 33

query: Item "CNC(=O)Oc1cccc2ccccc12" has what recorded Activity?
result: 58

====

Attribute: Activity
test system: Glycine max; test: Genotoxicity in Glycine max (soybean) exposed to compound through spray 4 times over 2 weeks assessed as relative adduct level A3 measured per 10^9 nucleotides using [32P]labeling based autoradiography relative to untreated control; type: organism-based; conditions: in vivo, other, 336 h

CC(C)[C@H](C(=O)O[C@H](C#N)c1cccc(Oc2ccccc2)c1)c1ccc(Cl)cc1: 154
CNC(=O)Oc1cccc2ccccc12: 16
N#Cc1c(Cl)c(Cl)c(Cl)c(C#N)c1Cl: 136

Then there is this molecule:
query: Form field - read-out: Activity; system: Glycine max; submitted item: CCOP(=S)(OCC)Oc1cc(C)nc(C(C)C)n1 [DIMPYLATE]
result: 27
